- assay_notes: chemical genetic growth profiling, strain panel (AID 1159580);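 note: tested at 20 µM; growth read once vehicle control cultures reached saturation at 30 °C; 1 = growth at the plate median or of vehicle wells; lower values mean less growth of the strain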
- assay_conditions: S. cerevisiae deletion strains, growth OD, locus YDL028C, strain MPS1, active compounds read low
In all, about 5,500 compounds went through this assay and about 2,000 (36%) were called active. Not shown: some 18% with an inconclusive outcome. This is one part of the list.
I'd be grateful if you could share measured normalized growth for these entries.
One number for each entry.

Here's what some known entries look like.
molecule	normalized growth
Cc1c(C(=O)Sc2ccc(F)cc2F)sc2nc(C(F)(F)F)nn12	0.38
N#C/C(=N/Nc1ccc(F)cc1)S(=O)(=O)c1ccc(Cl)cc1	0.971
COc1cccc(C2CCN(C(=O)c3cccc4ccccc34)CC2)c1	0.993
CC(C)(C)c1ccc(C(=N)SC(C(=O)C(F)(F)F)c2ccccc2)cc1 (stereo not drawn)	0.989

For each of the molecules below, note its normalized growth.
1. Fc1cc(I)ccc1Nc1ccnc2cc(Cl)ccc12
2. CC(=O)/C(C#N)=N\Nc1ccc(F)cc1
3. O=[N+]([O-])c1ccc(-c2noc(-c3ccno3)n2)o1
4. O=C(Oc1cccc2[nH]ccc12)c1ccc(C(F)(F)F)cc1

A.
1. 0.979
2. 0.728
3. 0.128
4. 0.974

For each of the molecules below, note its normalized growth.
1. COc1ccc(C(CC(=O)c2ccccc2)Sc2ccccc2N)cc1OC (stereo not drawn)
2. O=C(Nc1cccc(C(F)(F)F)c1)c1cncc(C#Cc2ccccc2)c1
3. Cc1cccc(NC(=S)N/N=C\c2ccc(F)cc2)c1
4. N/C(CCSc1ccc(Cl)cc1)=N/OC(=O)Nc1ccc(Cl)cc1

A.
1: 0.979; 2: 0.978; 3: 0.958; 4: 0.986

For each of the molecules below, note its normalized growth.
1. O=[N+]([O-])c1ccc(ON=C2CCCCC2)c([N+](=O)[O-])c1
2. O=C(ON=C1CCCCC1)c1ccc([N+](=O)[O-])cc1
3. CC(C)c1ccc(COC(=O)Nc2ccc(CSc3ccc(Cl)cc3)o2)cc1
4. Cc1nn(C)c(C(=O)Sc2ccc(OC(F)(F)F)cc2)c1[N+](=O)[O-]
5. N#C/C(=N/Nc1ccccc1)C(=O)c1ccccc1OC(F)(F)F
6. CC(C)(C)c1ccc(N/N=C(\C#N)C(N)=O)cc1
7. CC(=O)c1ccc(Cl)c(NS(=O)(=O)c2cc(Cl)c(Cl)cc2Cl)c1

A.
0.988
0.95
0.985
0.985
0.918
0.117
0.89

* * *

- assay_notes: chemical genetic growth profiling, strain panel (AID 1159580);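 note: tested at 20 µM; growth read once vehicle control cultures reached saturation at 30 °C; 1 = growth at the plate median or of vehicle wells; lower values mean less growth of the strain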
- assay_conditions: S. cerevisiae deletion strains, growth OD, locus YML124C, strain tub3, active compounds read low
The campaign covered roughly 5,500 compounds. About 2,000 (36%) were called active. Inconclusive results (about 18%) are left out. The list shows a part of the results.
readout_label: normalized growth
Numbers only.

compound	normalized growth
COc1ccc2c(c1)OC1(O)COc3cc(OC)c(OC)cc3C1=C2 (stereo not given)	0.986
C=C1CCC2[C@](C)(CO)[C@H](O)CC[C@@]2(C)[C@@H]1C/C=C1/C(=O)OC[C@H]1O (stereo not given in full)	1.03
O=C(O)c1cc2cc(F)ccc2[nH]1	1.01
C=CCc1ccc(OC(=O)c2ccccc2)c(OC)c1	0.977
CCCCNC(=O)NS(=O)(=O)c1ccc(C)cc1	0.979
OCC(O)CN1CCN(c2ccccc2)CC1 (stereo not given)	0.989

For each of the compounds below, note its normalized growth.
1. CC1(C)CCC[C@@]2(C)C1[C@@H](O)C[C@]1(C)C2CC[C@@H]2[C@@]3(C)CC[C@H](C(C)(C)O)[C@@H]3CC[C@@]21C (stereo not given in full)
2. C=C1C2CC[C@@]3(C)[C@H](c4ccoc4)OC(=O)C[C@]13O[C@H]1CC(=O)C(C)(C)[C@H](C(OC(C)=O)C(=O)OC)[C@@]21C (stereo not given in full)

A.
1: 1.01; 2: 1

For each of the compounds below, note its normalized growth.
1. Cc1[nH]c2ccccc2c1CN(C)C
2. CNCCC(Oc1ccc(C(F)(F)F)cc1)c1ccccc1 (stereo not given)

A.
[0.991, 0.992]
